Reference for the values: patent US20110262445A1

# TARGET OR SYSTEM: T1, human IL-12 (human, UniProt P29460 23-328; P29459 23-219)
# T1 construct: Recombinant (Peprotech); FLAG-tagged IL-12 in the flow cytometry assays, biotinylated in the IL-12Rβ2 assay; also called hIL-12
# T1 sequence 1: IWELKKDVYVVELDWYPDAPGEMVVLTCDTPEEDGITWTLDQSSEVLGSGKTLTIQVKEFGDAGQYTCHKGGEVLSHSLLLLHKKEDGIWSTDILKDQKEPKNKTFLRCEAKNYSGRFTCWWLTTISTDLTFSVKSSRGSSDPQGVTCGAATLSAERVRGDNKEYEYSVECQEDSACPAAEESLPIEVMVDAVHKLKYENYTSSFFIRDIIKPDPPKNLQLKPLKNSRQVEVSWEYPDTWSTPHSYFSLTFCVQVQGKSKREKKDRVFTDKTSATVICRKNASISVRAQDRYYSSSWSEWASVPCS
# T1 sequence 2: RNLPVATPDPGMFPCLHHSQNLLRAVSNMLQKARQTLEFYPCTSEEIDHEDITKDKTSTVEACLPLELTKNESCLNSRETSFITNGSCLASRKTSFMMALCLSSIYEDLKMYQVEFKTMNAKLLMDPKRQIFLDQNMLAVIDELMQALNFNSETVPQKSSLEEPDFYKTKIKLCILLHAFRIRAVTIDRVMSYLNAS
# TEST: ELISA, coated IL-12

# BINDER, binding result
measured = [
    ("Antibody 78 (antibody, human IgG1, kappa, V domains shown) VH: QVQLVQSGAEVKKPGASVKVSCKVSGYTLTDYYLHWVRQAPGKGLEWMGWIDPENGDTEYAPKFQGRVTMTEDTSTDTAYMELSSLRSEDTAVYYCATNKELRYFDVWGQGTMVTVSS VL: EIVLTQSPATLSLSPGERATLSCRASQSISINLHWYQQKPGQAPRLLIYFASQSISGIPARFSGSGSGTDFTLTISSLEPEDFAVYYCQQSNSFPLTFGGGTKVEIKR", "binds"),
]
